# test target: Cytochrome P450 2C9 (Homo sapiens, UniProt P11712)
# Sequence (P11712 whole entry): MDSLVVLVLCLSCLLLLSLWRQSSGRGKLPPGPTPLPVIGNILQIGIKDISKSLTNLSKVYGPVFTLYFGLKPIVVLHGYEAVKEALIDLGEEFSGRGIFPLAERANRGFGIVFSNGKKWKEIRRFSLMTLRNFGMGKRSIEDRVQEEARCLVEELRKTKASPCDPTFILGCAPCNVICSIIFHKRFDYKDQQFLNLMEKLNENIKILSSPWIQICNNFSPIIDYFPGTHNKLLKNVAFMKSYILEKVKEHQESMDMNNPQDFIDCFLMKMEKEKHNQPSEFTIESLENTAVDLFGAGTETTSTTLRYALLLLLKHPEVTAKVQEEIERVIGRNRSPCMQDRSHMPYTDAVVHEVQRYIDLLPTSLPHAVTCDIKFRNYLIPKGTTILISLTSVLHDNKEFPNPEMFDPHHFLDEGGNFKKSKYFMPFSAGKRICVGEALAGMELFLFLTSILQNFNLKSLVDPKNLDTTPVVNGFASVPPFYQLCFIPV
test readout: pIC50
Scale note: pIC50 = -log10(concentration in M).

What value of measured pIC50 is listed for `Cn1cnc2ccc(-c3nc4ccc(C5CC5)cc4n(-c4ccc(OC(F)F)cc4)c3=O)cc21` ?
4.90

----------
pIC50 values by entry
# Test system: B16-F10
# test description: Antiproliferative activity against mouse B16-F10 cells harboring wild type MTAP assessed as inhibition of cell viability measured for 96 hrs by SRB assay
# Format: functional, cell-based
# measurement conditions: B16-F10, 96 h
pIC50: −log10 of the molar value.

Recorded results for 4 molecules are shown here.
structure notation: Cn1cc2cc(-c3nc4ccc(C5CC5)cc4n(-c4ccc(OC(F)F)cc4)c3=O)ccc2n1
pIC50: < 4.70

structure notation: O=c1c(-c2ccc3c(c2)CCO3)nc2cnc(NCC(F)(F)F)nc2n1-c1ccc(OC(F)F)cc1
pIC50: < 4.70

structure notation: Cn1cc2cc(-c3nc4cnc(NCC(F)(F)F)nc4n(-c4ccc(OC(F)F)cc4)c3=O)ccc2n1
pIC50: < 4.70

structure notation: O=c1c(-c2ccc3nccn3c2)nc2ccc(C3CC3)cc2n1-c1ccc(OC(F)F)cc1
pIC50: < 4.70

Could you now look at the following molecule, please?
What value of measured pIC50 is listed for `O=c1c(-c2ccc3nncn3c2)nc2ccc(C3CC3)cc2n1-c1ccc(OC(F)F)cc1` ?
4.83

----------
# test description: Cmax in male ICR mouse at 10 mg/kg, po measured upto 36 hrs by LC-MS/MS analysis
# Assay type: ADME, organism-based
# measurement conditions: in vivo
test readout: Cmax (ng/mL)
Number in ng/mL, nothing else.

What value of measured Cmax is listed for `Cn1cnc2ccc(-c3nc4ccc(C5CC5)cc4n(-c4ccc(OC(F)F)cc4)c3=O)cc21` ?
2600

----------
# test description: Plasma protein binding in mouse assessed as unbound fraction
# Assay type: ADME, cell-free
test readout: fraction unbound
In your answer, state the number alone without any accompanying words.

What value of measured fraction unbound is listed for `Cn1cnc2ccc(-c3nc4ccc(C5CC5)cc4n(-c4ccc(OC(F)F)cc4)c3=O)cc21` ?
0.016

----------
# test description: Half life in male ICR mouse at 1 mg/kg, iv measured upto 36 hrs by LC-MS/MS analysis
# Assay type: ADME, organism-based
# measurement conditions: in vivo
test readout: half-life (h)
Number in h, nothing else.

What value of measured half-life is listed for `Cn1cnc2ccc(-c3nc4ccc(C5CC5)cc4n(-c4ccc(OC(F)F)cc4)c3=O)cc21` ?
8.43

----------
# test description: Half life in male ICR mouse at 10 mg/kg, po measured upto 36 hrs by LC-MS/MS analysis
# Type: ADME, organism-based
# measurement conditions: in vivo
test readout: half-life (h)
Number in h, nothing else.

What value of measured half-life is listed for `Cn1cnc2ccc(-c3nc4ccc(C5CC5)cc4n(-c4ccc(OC(F)F)cc4)c3=O)cc21` ?
6.73

----------
# test description: AUC (0 to t) in male ICR mouse at 10 mg/kg, po measured upto 36 hrs by LC-MS/MS analysis
# Assay type: ADME, organism-based
# measurement conditions: in vivo
test readout: AUC(0-t) at 36 h (ng·h/mL)
Number in ng·h/mL, nothing else.

What value of measured AUC(0-t) at 36 h is listed for `Cn1cnc2ccc(-c3nc4ccc(C5CC5)cc4n(-c4ccc(OC(F)F)cc4)c3=O)cc21` ?
36500
